Here the recorded pKi is given for each entry.
Target Of Assay: Orexin receptor type 2 (Homo sapiens)
Sequence (O43614 whole entry): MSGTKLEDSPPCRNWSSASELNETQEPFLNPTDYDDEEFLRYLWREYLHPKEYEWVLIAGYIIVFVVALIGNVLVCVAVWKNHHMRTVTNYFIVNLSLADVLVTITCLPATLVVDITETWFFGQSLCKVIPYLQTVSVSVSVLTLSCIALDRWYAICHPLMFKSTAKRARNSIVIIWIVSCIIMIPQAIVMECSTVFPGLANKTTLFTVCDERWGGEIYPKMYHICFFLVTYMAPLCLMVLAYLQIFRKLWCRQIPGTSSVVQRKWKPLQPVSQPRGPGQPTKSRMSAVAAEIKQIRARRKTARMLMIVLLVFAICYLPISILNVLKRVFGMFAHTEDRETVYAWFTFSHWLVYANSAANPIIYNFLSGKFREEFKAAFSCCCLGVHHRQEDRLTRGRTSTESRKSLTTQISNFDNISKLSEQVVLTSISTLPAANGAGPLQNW
Assay Explanation: Antagonist activity at human OX2 receptor expressed in […] assessed as inhibition of orexin A-induced Ca2+ elevation […] in presence of orexin A by FLIPR calcium 4 assay
Assay type: functional, cell-based
pKi: −log10 of the molar value.
Property Label: pKi

INSERT INTO measurements (compound, property_label, reported_result) VALUES
  ('COc1ccc(N(CC(=O)NC(C)c2ccccc2)S(=O)(=O)c2ccc(OC)c(OC)c2)cc1 (stereo unspecified)', 'pKi', 7.00),
  ('Cc1ccc(C(O)(C(=O)NNc2cc(Cl)ccc2Cl)c2ccc(C)cc2)cc1', 'pKi', 5.77),
  ('COc1ccc(CCNC(=O)Cn2c(-c3nonc3N)nc3ccccc32)cc1OC', 'pKi', 6.05),
  ('O=C(CSc1nnc(-c2cccs2)n1Cc1ccco1)Nc1ccc2c(c1)OCCO2', 'pKi', 6.52),
  ('C=CCN1C(=O)C2(Nc3ccccc3C(=O)N2c2ccccc2OC)c2ccccc21 (stereo unspecified)', 'pKi', 5.92),
  ('CCOC(=O)c1c(NC(=O)C(C)Sc2nnc(CNC(=O)c3cc(OC)cc(OC)c3)n2-c2ccccc2OC)sc2c1CCC2 (stereo unspecified)', 'pKi', 6.00);

###

Catalogue of compounds with associated fold change (FC)
Target Of Assay: Orexin/Hypocretin receptor type 1 (Homo sapiens)
Sequence (whole entry): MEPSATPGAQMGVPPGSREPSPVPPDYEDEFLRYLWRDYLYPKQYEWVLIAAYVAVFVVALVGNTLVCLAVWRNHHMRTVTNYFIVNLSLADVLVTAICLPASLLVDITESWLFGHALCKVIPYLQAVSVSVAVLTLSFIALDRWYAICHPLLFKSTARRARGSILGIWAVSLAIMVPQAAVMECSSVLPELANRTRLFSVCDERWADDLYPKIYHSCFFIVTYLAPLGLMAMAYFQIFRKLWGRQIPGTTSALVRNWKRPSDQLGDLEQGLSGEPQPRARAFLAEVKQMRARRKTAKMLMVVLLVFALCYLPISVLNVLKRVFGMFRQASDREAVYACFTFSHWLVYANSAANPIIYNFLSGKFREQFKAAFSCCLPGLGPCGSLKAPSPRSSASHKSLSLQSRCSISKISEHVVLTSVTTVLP
Assay Explanation: Agonist activity at human OX1 receptor expressed in […] assessed as induction of Ca2+ elevation at 10 uM after 30 mins by FLIPR back ground response
Assay type: functional, cell-based
Property Label: fold change (FC)

INSERT INTO assay_data (compound, target_of_assay, reported_result) VALUES
  ('COc1ccccc1OCCNC[C@@H](O)COc1cccc2[nH]c3ccccc3c12 [(R)-Carvedilol]', 'Orexin/Hypocretin receptor type 1 (Homo sapiens)', 3.3),
  ('COC(=O)CN(C(C)=O)C(c1ccccc1)c1cc(Br)ccc1NC(=O)c1ccccc1Cl (centres undefined)', 'Orexin/Hypocretin receptor type 1 (Homo sapiens)', 3.4),
  ('COc1ccc(Nc2nc(NCc3ccco3)nc(N/N=C\c3cc(Br)c(O)c(Br)c3)n2)cc1', 'Orexin/Hypocretin receptor type 1 (Homo sapiens)', 1.9),
  ('CC(/C=C/c1ccccc1)=N/Nc1nc(Nc2ccccc2)nc(-n2nc(C)cc2C)n1', 'Orexin/Hypocretin receptor type 1 (Homo sapiens)', 2.8);

Where do these numbers come from? They come from ChEMBL document CHEMBL4428072.
